Biological target: Jnk1 (Homo sapiens, UniProt P45983)
Sequence (P45983 whole entry): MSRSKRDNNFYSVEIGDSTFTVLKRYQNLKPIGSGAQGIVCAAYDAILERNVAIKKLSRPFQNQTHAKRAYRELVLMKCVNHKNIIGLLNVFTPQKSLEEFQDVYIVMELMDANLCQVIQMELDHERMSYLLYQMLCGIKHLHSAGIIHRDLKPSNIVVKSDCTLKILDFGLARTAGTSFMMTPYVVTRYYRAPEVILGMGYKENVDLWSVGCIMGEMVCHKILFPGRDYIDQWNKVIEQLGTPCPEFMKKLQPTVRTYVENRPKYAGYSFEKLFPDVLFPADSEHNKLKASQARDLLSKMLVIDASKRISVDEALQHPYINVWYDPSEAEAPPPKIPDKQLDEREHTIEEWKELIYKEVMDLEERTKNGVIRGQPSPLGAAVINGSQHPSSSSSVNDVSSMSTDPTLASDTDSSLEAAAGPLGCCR
pIC50: −log10 of the molar value.
measure_name: pIC50

compound	pIC50
c1ccc(COc2cnc3[nH]ccc3c2)cc1 [P-0002, 5-(benzyloxy)-1H-pyrrolo[2,3-b]pyridine]	≥ 5.00

For the next question, use this compound.
Bench note, Jnk1 (Homo sapiens, UniProt P45983): entry CCCS(=O)(=O)Nc1ccc(F)c(C(=O)c2c[nH]c3ncc(OC4CCCC4)cc23)c1F [P-0033] , its pIC50 = ≥ 5.00

----------
Molecular target: c-Raf-1 (Homo sapiens)
Sequence (P04049 whole entry): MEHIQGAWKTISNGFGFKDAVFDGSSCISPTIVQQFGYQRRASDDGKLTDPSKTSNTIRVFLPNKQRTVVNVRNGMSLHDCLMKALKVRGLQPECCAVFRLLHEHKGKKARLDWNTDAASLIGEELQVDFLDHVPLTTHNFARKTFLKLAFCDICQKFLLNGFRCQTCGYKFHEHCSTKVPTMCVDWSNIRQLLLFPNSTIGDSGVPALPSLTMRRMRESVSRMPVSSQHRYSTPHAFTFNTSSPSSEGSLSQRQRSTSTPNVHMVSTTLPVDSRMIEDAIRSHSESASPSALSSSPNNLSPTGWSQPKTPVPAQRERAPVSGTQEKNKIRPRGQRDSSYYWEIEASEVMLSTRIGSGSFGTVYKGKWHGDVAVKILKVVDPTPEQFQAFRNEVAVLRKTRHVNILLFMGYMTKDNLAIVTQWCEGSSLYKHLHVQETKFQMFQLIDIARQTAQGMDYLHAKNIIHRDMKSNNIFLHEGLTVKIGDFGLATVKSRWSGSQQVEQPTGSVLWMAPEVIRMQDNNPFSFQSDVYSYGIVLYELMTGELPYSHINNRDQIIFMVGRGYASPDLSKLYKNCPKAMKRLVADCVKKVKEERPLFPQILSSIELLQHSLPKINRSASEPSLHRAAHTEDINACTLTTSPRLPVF
Here the recorded IC50 is given for each entry.

The molecule listed as CCCS(=O)(=O)Nc1ccc(F)c(C(=O)c2c[nH]c3ncc(OCc4ccccc4)cc23)c1F shows IC50 equal to ≤ 10 µM

The molecule listed as CCCS(=O)(=O)Nc1ccc(F)c(C(=O)c2c[nH]c3ncc(OC4CCCC4)cc23)c1F shows IC50 equal to ≤ 10 µM

----------
Biological target: Btk (Homo sapiens)
Sequence (Q06187 whole entry): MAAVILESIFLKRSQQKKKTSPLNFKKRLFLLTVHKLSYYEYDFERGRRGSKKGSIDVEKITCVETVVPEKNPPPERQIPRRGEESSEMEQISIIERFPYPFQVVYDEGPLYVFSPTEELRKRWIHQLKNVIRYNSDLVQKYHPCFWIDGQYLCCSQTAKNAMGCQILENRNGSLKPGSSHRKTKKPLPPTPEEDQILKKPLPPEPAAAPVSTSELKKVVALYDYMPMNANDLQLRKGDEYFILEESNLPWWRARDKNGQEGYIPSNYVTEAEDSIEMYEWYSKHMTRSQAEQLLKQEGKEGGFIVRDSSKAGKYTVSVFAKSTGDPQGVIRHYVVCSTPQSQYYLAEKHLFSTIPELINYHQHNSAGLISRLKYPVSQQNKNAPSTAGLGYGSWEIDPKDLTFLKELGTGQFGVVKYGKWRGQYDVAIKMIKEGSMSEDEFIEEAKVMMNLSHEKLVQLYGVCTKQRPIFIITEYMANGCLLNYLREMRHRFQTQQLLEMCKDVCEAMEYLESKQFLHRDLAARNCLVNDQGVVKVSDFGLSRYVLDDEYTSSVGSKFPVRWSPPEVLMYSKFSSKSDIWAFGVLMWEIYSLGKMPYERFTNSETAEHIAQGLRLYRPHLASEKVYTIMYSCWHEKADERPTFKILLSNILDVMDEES
pIC50: −log10 of the molar value.
measure_name: pIC50

Bench note, Btk (Homo sapiens): entry O=C(c1ccc(Cl)cc1Cl)c1c[nH]c2ncc(Oc3ccccc3)cc12 [P-0036] , its pIC50 = ≥ 5.00

----------
Here the recorded IC50 is given for each entry.
Molecular target: Kit (Homo sapiens, UniProt P10721)
Sequence (P10721 26-976): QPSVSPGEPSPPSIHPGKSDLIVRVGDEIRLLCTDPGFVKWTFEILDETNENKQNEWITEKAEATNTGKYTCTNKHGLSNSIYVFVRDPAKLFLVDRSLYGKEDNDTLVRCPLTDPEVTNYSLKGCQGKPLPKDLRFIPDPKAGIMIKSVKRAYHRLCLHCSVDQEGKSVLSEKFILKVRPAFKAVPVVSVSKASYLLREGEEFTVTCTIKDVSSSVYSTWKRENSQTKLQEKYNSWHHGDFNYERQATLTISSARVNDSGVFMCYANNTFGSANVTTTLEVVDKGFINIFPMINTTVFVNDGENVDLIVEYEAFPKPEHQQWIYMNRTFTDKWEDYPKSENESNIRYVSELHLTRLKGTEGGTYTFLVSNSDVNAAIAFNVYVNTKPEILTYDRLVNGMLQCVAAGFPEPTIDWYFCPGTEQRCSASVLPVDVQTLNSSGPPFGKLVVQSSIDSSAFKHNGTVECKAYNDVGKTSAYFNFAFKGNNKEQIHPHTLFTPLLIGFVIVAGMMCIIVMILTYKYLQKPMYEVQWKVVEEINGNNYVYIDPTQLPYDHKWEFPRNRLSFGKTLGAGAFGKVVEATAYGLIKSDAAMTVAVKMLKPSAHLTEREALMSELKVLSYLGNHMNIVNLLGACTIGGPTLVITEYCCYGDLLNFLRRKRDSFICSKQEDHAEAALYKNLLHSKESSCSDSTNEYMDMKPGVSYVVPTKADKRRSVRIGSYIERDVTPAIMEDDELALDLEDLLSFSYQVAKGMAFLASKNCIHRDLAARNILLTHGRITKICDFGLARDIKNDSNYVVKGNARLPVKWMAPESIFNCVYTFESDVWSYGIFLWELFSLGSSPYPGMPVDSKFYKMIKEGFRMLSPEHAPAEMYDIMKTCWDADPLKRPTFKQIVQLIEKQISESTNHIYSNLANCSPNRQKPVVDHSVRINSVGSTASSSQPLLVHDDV
Experiment: Kinase activity assay, Kit
Type: biochemical
Conditions: under the test conditions employed; read-out: activity toward kinase Kit, IC50

mol	reported_value
c1cc2cc(OC3CCCC3)cnc2[nH]1	≤ 10 µM
O=C(O)Cc1cccc(Oc2cnc3[nH]cc(C(=O)c4ccc(F)cc4Cl)c3c2)c1	≤ 10 µM

For the next question, use this compound.
Bench note, Kit (Homo sapiens, UniProt P10721): entry CCCS(=O)(=O)Nc1ccc(F)c(C(=O)c2c[nH]c3ncc(OC4CCCC4)cc23)c1F , its IC50 = ≤ 10 µM

Reference source for all entries: patent US8268858B2
